# credit: patent US20240270821A1

target: hGLP-1R (Homo sapiens, UniProt P43220); test: cell-based or functional assay
Sequence (P43220 24-463): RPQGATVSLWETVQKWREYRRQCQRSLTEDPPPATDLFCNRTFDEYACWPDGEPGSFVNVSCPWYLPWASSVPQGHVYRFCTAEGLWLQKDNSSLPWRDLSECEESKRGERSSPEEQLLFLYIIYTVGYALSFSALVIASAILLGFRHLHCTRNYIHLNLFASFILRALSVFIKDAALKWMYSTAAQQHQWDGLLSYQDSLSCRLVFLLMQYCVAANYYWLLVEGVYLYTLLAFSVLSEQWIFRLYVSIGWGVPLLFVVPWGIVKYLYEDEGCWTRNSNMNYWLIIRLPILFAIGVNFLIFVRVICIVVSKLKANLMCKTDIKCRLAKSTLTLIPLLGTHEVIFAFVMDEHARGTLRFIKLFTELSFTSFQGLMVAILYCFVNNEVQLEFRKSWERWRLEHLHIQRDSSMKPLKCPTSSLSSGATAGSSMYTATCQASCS
MEASURED ENDPOINT: Relative cAMP EC50

BINDER	MEASURED ENDPOINT	MEASURED VALUE
YXQGTXTSDYSIXLDKKAQXAFIEYLEEGGPSSGAPPPSEG (synthetic construct; SITE 2: note = 2-Aminoisobutyric Acid; SITE 6: note = alpha-methyl-2-fluoro-L-phenylalanine; SITE 13: note = alpha-methyl-leucine; SITE 17: note = Lysine is chemically modified through conjugation of the epsilon-amino group of the Lysine side chain with (2-[2-(2-Amino-ethoxy)-et)) [Example 431]	Relative cAMP EC50	0.392 nM
YXQGTFTSDFSKXLDKKAQXAFIEYLLAGGPSSGEPPPGGS (Aib, αMeL; acylated Lys; C-terminal amide; synthetic construct; SITE 2: note = 2-Aminoisobutyric Acid; SITE 13: note = alpha-methyl-leucine; SITE 17: note = Lysine is chemically modified through conjugation of the epsilon-amino group of the Lysine side chain with (2-[2-(2-Amino-ethoxy)-ethoxy]-acetyl)-(gamma-Glu)-CO-(CH2) 18-CO2H; SITE 20: n) [Example 9]	Relative cAMP EC50	1.61 nM
YXQGTFTSDFSXXLDKKAQXAFIEWLLEGGHSSGAPPPSGH (synthetic construct; SITE 2: note = 2-Aminoisobutyric Acid; SITE 12: note = L-ornithine; SITE 13: note = alpha-methyl-leucine; SITE 17: note = Lysine is chemically modified through conjugation of the epsilon-amino group of the Lysine side chain with (2-[2-(2-Amino-ethoxy)-ethoxy]-acetyl)-(gamma-Glu)) [Example 269]	Relative cAMP EC50	3.23 nM
YXQGTFTSDFSRXLDKKAQXAFIEYLIEXGESSGAPPPSGE (non-natural residues; lipidated Lys; C-terminal amide; synthetic construct; SITE 2: note = 2-Aminoisobutyric Acid; SITE 13: note = alpha-methyl-leucine; SITE 17: note = Lysine is chemically modified through conjugation of the epsilon-amino group of the Lysine side chain with (2-[2-(2-Amino-ethoxy)-ethoxy]-acetyl)-(gamma-Glu)-CO-(CH2) 16-CO2H; SITE 20: n) [Example 231]	Relative cAMP EC50	1.3 nM
YXQGTFTSDFSXXLDKKAQXAFIEYLLEAGPSSGAPPPEGE (Aib, Orn, αMeL, D-Ala; AEEA-γGlu-C18 diacid acyl; amide; synthetic construct; SITE 2: note = 2-Aminoisobutyric Acid; SITE 12: note = L-ornithine; SITE 13: note = alpha-methyl-leucine; SITE 17: note = Lysine is chemically modified through conjugation of the epsilon-amino group of the Lysine side chain with (2-[2-(2-Amino-ethoxy)-ethoxy]-acetyl)-(gamma-Glu)) [Example 206]	Relative cAMP EC50	2.77 nM
YXQGTXTSDXSIXLDKKAQXAFIEYLEEGGPSSGAPPPSGTGE (non-natural residues; (γGlu)2-C18 diacid acyl; C-terminal amide; synthetic construct; SITE 2: note = 2-Aminoisobutyric Acid; SITE 6: note = alpha-methyl-2-fluoro-L-phenylalanine; SITE 10: note = 3-(4-Pyridyl)-L-alanine; SITE 13: note = alpha-methyl-leucine; SITE 17: note = Lysine is chemically modified through conjugation of the epsilon-amino group of the Lysine) [Example 622]	Relative cAMP EC50	0.776 nM
YXQGTFTSDFSXXLDKKAQXAFIEYLLEXGPSSGAPPPSEG (synthetic construct; SITE 2: note = 2-Aminoisobutyric Acid; SITE 12: note = L-ornithine; SITE 13: note = alpha-methyl-leucine; SITE 17: note = Lysine is chemically modified through conjugation of the epsilon-amino group of the Lysine side chain with (2-[2-(2-Amino-ethoxy)-ethoxy]-acetyl)2-(gamma-Glu)) [Example 71]	Relative cAMP EC50	3.12 nM
YXQGTXTSDXSIXLDKKAQXAFIEYLSEGGPSSGAPPPS (synthetic construct; SITE 2: note = 2-Aminoisobutyric Acid; SITE 6: note = alpha-methyl-2-fluoro-L-phenylalanine; SITE 10: note = 3-(4-Pyridyl)-L-alanine; SITE 13: note = alpha-methyl-leucine; SITE 17: note = Lysine is chemically modified through conjugation of the epsilon-amino group of the Lysine) [Example 446]	Relative cAMP EC50	0.696 nM
